- Test system: Staphylococcus simulans
- ASSAY: Antibacterial activity against Staphylococcus simulans 22 assessed as inhibition of bacterial growth incubated for 16 hrs in presence of C15-PP by broth microdilution assay
- Type: functional, organism-based
The source made the active and inactive calls. The rule behind the calls is not given here.
PROPERTY_MEASURED: Activity

CCCCCCCCCC(=O)N[C@@H](Cc1c[nH]c2ccccc12)C(=O)N[C@H](CC(N)=O)C(=O)N[C@@H](CC(=O)O)C(=O)N[C@H]1CNC(=O)[C@H]2CCCN2C(=O)[C@H]([C@@H](C)CC)NC(=O)[C@@H]([C@@H](C)O)NC(=O)CNC(=O)[C@H](CC(=O)O)NC(=O)[C@@H](C)NC(=O)[C@H](CC(=O)O)NC(=O)CNC(=O)CNC1=O | Active
CCCCCCCCCC(=O)N[C@@H](Cc1c[nH]c2ccccc12)C(=O)N[C@H](CC(N)=O)C(=O)N[C@@H](CC(=O)O)C(=O)N[C@H]1CNC(=O)[C@@H](Cc2c[nH]c3ccccc23)NC(=O)[C@H](CCC(=O)O)NC(=O)[C@@H](CO)NC(=O)CNC(=O)[C@H](CC(=O)O)NC(=O)[C@@H](C)NC(=O)[C@H](CC(=O)O)NC(=O)[C@H](CCCN)NC(=O)[C@H]2CCCCN2C1=O | Active
CCCCCCCCCC(=O)N[C@@H](Cc1c[nH]c2ccccc12)C(=O)N[C@@H](CC(N)=O)C(=O)N[C@@H](CC(=O)O)C(=O)N[C@@H]1C(=O)NCC(=O)N[C@@H](CCCN)C(=O)N[C@H](CC(=O)O)C(=O)N[C@H](C)C(=O)N[C@@H](CC(=O)O)C(=O)NCC(=O)N[C@H](CO)C(=O)N[C@@H]([C@@H](C)CC(=O)O)C(=O)N[C@@H](CC(=O)c2ccccc2N)C(=O)O[C@@H]1C | Active

---

- Test system: Staphylococcus simulans
- ASSAY: Antibacterial activity against Staphylococcus simulans 22 assessed as inhibition of bacterial growth incubated for 16 hrs in presence of 10 mM Ca2+ by broth microdilution assay
- Assay type: functional
Activity calls are given as the source filed them. The rule behind the calls is not given here. Bridge positions count the residues as written; N and C are the ends. Square brackets hold non-standard residues; d marks the D form. Peptide text beside a SMILES is read from it. * marks the point of attachment. Tetradecenoyl(2E,13-Me) = CC(C)CCCCCCCCC/C=C/C(=O)*; d(aThr) = C[C@@H](O)[C@@H](N)C(=O)O; dPip = O=C(O)[C@H]1CCCCN1; Dap = NC[C@H](N)C(=O)O
PROPERTY_MEASURED: MIC

CCCCCCCCCC(=O)N[C@@H](Cc1c[nH]c2ccccc12)C(=O)N[C@H](CC(N)=O)C(=O)N[C@@H](CC(=O)O)C(=O)N[C@H]1CNC(=O)[C@H]2CCCN2C(=O)[C@H](CCC(=O)O)NC(=O)[C@@H](CO)NC(=O)CNC(=O)[C@H](CC(=O)O)NC(=O)[C@@H](C)NC(=O)[C@H](CC(=O)O)NC(=O)[C@H](CCCN)NC(=O)[C@H]2CCCCN2C1=O | inactive
CC[C@H](C)[C@@H]1NC(=O)[C@@H]([C@@H](C)O)NC(=O)CNC(=O)[C@H](CC(=O)O)NC(=O)CNC(=O)[C@H](CC(=O)O)NC(=O)CNC(=O)[C@H]2CCCCN2C(=O)[C@@H](NC(=O)[C@H](CC(=O)O)NC(=O)/C=C/CCCCCCCCCC(C)C)CNC(=O)[C@@H]2CCCN2C1=O ({Tetradecenoyl(2E,13-Me)}-D[Dap][dPip]GDGDG[d(aThr)]IP; lactam 2-C) | ≤ 1 µg/mL
CCCCCCCCCC(=O)N[C@@H](Cc1c[nH]c2ccccc12)C(=O)N[C@H](CC(N)=O)C(=O)N[C@@H](CC(=O)O)C(=O)N[C@H]1CNC(=O)[C@H]2CCCN2C(=O)[C@H]([C@@H](C)CC)NC(=O)[C@@H]([C@@H](C)O)NC(=O)CNC(=O)[C@H](CC(=O)O)NC(=O)[C@@H](C)NC(=O)[C@H](CC(=O)O)NC(=O)CNC(=O)[C@H]2CCCCN2C1=O | inactive
CCCCCCCCCC(=O)N[C@@H](Cc1c[nH]c2ccccc12)C(=O)N[C@H](CC(N)=O)C(=O)N[C@@H](CC(=O)O)C(=O)N[C@@H]1C(=O)NCC(=O)N[C@@H](CCCN)C(=O)N[C@@H](CC(=O)O)C(=O)N[C@H](C)C(=O)N[C@@H](CC(=O)O)C(=O)NCC(=O)N[C@H](CO)C(=O)N[C@@H]([C@@H](C)CC(=O)O)C(=O)N[C@@H](CC(=O)c2ccccc2N)C(=O)O[C@@H]1C | ≤ 0.031 µg/mL
